Assay: Clinical trial 005, rifalazil concentration in plasma of tuberculosis patients
Assay type: in vivo, human
Conditions: human, plasma, INH + 10 mg KRM; Hour 24; read-out: Rifalazil Concentration in Plasma, Min
MEASURED PARAMETER: concentration at 24 h (ng/mL)
Record the value in ng/mL, omitting the unit from your answer.

Query block: Using the record for "CO[C@H]1/C=C/O[C@@]2(C)Oc3c(C)c(O)c4c(=O)c(c5oc6cc(N7CCN(CC(C)C)CC7)cc(O)c6nc-5c4c3C2=O)NC(=O)/C(C)=C\C=C\[C@H](C)[C@H](O)[C@@H](C)[C@@H](O)[C@@H](C)[C@H](OC(C)=O)[C@@H]1C" , report its concentration at 24 h.
Result block: 2.3

* * *

Assay: Clinical trial 005, rifalazil concentration in plasma of tuberculosis patients
Type: in vivo, human
Settings: human, plasma, 25 mg, INH + 25 mg KRM; Day 15; read-out: Rifalazil Concentration in Plasma, Med
MEASURED PARAMETER: concentration at 15 day
Provide a numeric answer, followed by its unit.

Query block: Using the record for "CO[C@H]1/C=C/O[C@@]2(C)Oc3c(C)c(O)c4c(=O)c(c5oc6cc(N7CCN(CC(C)C)CC7)cc(O)c6nc-5c4c3C2=O)NC(=O)/C(C)=C\C=C\[C@H](C)[C@H](O)[C@@H](C)[C@@H](O)[C@@H](C)[C@H](OC(C)=O)[C@@H]1C" , report its concentration at 15 day.
Result block: 0 ng/mL

* * *

Experiment: Clinical trial 005, rifalazil concentration in plasma of tuberculosis patients
Format: in vivo, human
Conditions: human, plasma, INH + 25 mg KRM; Hour 2; read-out: Rifalazil Concentration in Plasma, Mean
MEASURED PARAMETER: concentration at 2 h (ng/mL)
Record the value in ng/mL, omitting the unit from your answer.

Query block: Using the record for CO[C@H]1/C=C/O[C@@]2(C)Oc3c(C)c(O)c4c(=O)c(c5oc6cc(N7CCN(CC(C)C)CC7)cc(O)c6nc-5c4c3C2=O)NC(=O)/C(C)=C\C=C\[C@H](C)[C@H](O)[C@@H](C)[C@@H](O)[C@@H](C)[C@H](OC(C)=O)[C@@H]1C [Rifalazil] , report its concentration at 2 h.
Result block: 15.3

* * *

Experiment: Clinical trial 005, rifalazil concentration in plasma of tuberculosis patients
Format: in vivo, human
Details: human, plasma, INH + 10 mg KRM; Hour 12; read-out: Rifalazil Concentration in Plasma, Min
MEASURED PARAMETER: concentration at 12 h (ng/mL)
Record the value in ng/mL, omitting the unit from your answer.

Query block: Using the record for "CO[C@H]1/C=C/O[C@@]2(C)Oc3c(C)c(O)c4c(=O)c(c5oc6cc(N7CCN(CC(C)C)CC7)cc(O)c6nc-5c4c3C2=O)NC(=O)/C(C)=C\C=C\[C@H](C)[C@H](O)[C@@H](C)[C@@H](O)[C@@H](C)[C@H](OC(C)=O)[C@@H]1C" , report its concentration at 12 h.
Result block: 6.2

* * *

Test: Clinical trial 005, rifalazil concentration in plasma of tuberculosis patients
Assay type: in vivo, human
Details: human, plasma, INH + 25 mg KRM; Hour 9; read-out: Rifalazil Concentration in Plasma, Med
MEASURED PARAMETER: concentration at 9 h (ng/mL)
Record the value in ng/mL, omitting the unit from your answer.

Query block: Using the record for CO[C@H]1/C=C/O[C@@]2(C)Oc3c(C)c(O)c4c(=O)c(c5oc6cc(N7CCN(CC(C)C)CC7)cc(O)c6nc-5c4c3C2=O)NC(=O)/C(C)=C\C=C\[C@H](C)[C@H](O)[C@@H](C)[C@@H](O)[C@@H](C)[C@H](OC(C)=O)[C@@H]1C [Rifalazil] , report its concentration at 9 h.
Result block: 22.1

* * *

Experiment: Clinical trial 005, rifalazil concentration in plasma of tuberculosis patients
Assay type: in vivo, human
Conditions: human, plasma, INH + 25 mg KRM; Hour 12; read-out: Rifalazil Concentration in Plasma, Mean
MEASURED PARAMETER: concentration at 12 h
Provide a numeric answer, followed by its unit.

Query block: Using the record for "CO[C@H]1/C=C/O[C@@]2(C)Oc3c(C)c(O)c4c(=O)c(c5oc6cc(N7CCN(CC(C)C)CC7)cc(O)c6nc-5c4c3C2=O)NC(=O)/C(C)=C\C=C\[C@H](C)[C@H](O)[C@@H](C)[C@@H](O)[C@@H](C)[C@H](OC(C)=O)[C@@H]1C" , report its concentration at 12 h.
Result block: 16.3 ng/mL

* * *

Assay: Clinical trial 005, rifalazil concentration in plasma of tuberculosis patients
Assay type: in vivo, human
Settings: human, plasma, INH + 25 mg KRM; Hour 9; read-out: Rifalazil Concentration in Plasma, Mean
MEASURED PARAMETER: concentration at 9 h (µg/mL)
Record the value in µg/mL, omitting the unit from your answer.

Query block: Using the record for "CO[C@H]1/C=C/O[C@@]2(C)Oc3c(C)c(O)c4c(=O)c(c5oc6cc(N7CCN(CC(C)C)CC7)cc(O)c6nc-5c4c3C2=O)NC(=O)/C(C)=C\C=C\[C@H](C)[C@H](O)[C@@H](C)[C@@H](O)[C@@H](C)[C@H](OC(C)=O)[C@@H]1C" , report its concentration at 9 h.
Result block: 0.0216

* * *

Assay: Clinical trial 005, rifalazil concentration in plasma of tuberculosis patients
Type: in vivo, human
Settings: human, plasma, INH + 10 mg KRM; Hour 72; read-out: Rifalazil Concentration in Plasma, Min
MEASURED PARAMETER: concentration at 72 h (ng/mL)
Record the value in ng/mL, omitting the unit from your answer.

Query block: Using the record for CO[C@H]1/C=C/O[C@@]2(C)Oc3c(C)c(O)c4c(=O)c(c5oc6cc(N7CCN(CC(C)C)CC7)cc(O)c6nc-5c4c3C2=O)NC(=O)/C(C)=C\C=C\[C@H](C)[C@H](O)[C@@H](C)[C@@H](O)[C@@H](C)[C@H](OC(C)=O)[C@@H]1C [Rifalazil] , report its concentration at 72 h.
Result block: 0

* * *

Experiment: clinical
Settings: human, in vivo, 100 mg
MEASURED PARAMETER: AUC(0-inf) (ng·h/mL)
Record the value in ng·h/mL, omitting the unit from your answer.

Query block: Using the record for CO[C@H]1/C=C/O[C@@]2(C)Oc3c(C)c(O)c4c(=O)c(c5oc6cc(N7CCN(CC(C)C)CC7)cc(O)c6nc-5c4c3C2=O)NC(=O)/C(C)=C\C=C\[C@H](C)[C@H](O)[C@@H](C)[C@@H](O)[C@@H](C)[C@H](OC(C)=O)[C@@H]1C [Rifalazil] , report its AUC(0-inf).
Result block: 1540

* * *

Experiment: Clinical trial 005, rifalazil concentration in plasma of tuberculosis patients
Assay type: in vivo, human
Conditions: human, plasma, INH + 10 mg KRM; Hour 5; read-out: Rifalazil Concentration in Plasma, Min
MEASURED PARAMETER: concentration at 5 h
Provide a numeric answer, followed by its unit.

Query block: Using the record for "CO[C@H]1/C=C/O[C@@]2(C)Oc3c(C)c(O)c4c(=O)c(c5oc6cc(N7CCN(CC(C)C)CC7)cc(O)c6nc-5c4c3C2=O)NC(=O)/C(C)=C\C=C\[C@H](C)[C@H](O)[C@@H](C)[C@@H](O)[C@@H](C)[C@H](OC(C)=O)[C@@H]1C" , report its concentration at 5 h.
Result block: 4.2 ng/mL

* * *

Test: Clinical trial 005, rifalazil concentration in plasma of tuberculosis patients
Assay type: in vivo, human
Settings: human, plasma, INH + 10 mg KRM; Hour 9; read-out: Rifalazil Concentration in Plasma, Max
MEASURED PARAMETER: concentration at 9 h
Provide a numeric answer, followed by its unit.

Query block: Using the record for "CO[C@H]1/C=C/O[C@@]2(C)Oc3c(C)c(O)c4c(=O)c(c5oc6cc(N7CCN(CC(C)C)CC7)cc(O)c6nc-5c4c3C2=O)NC(=O)/C(C)=C\C=C\[C@H](C)[C@H](O)[C@@H](C)[C@@H](O)[C@@H](C)[C@H](OC(C)=O)[C@@H]1C" , report its concentration at 9 h.
Result block: 0.0192 µg/mL

* * *

Test: Clinical trial 005, rifalazil concentration in plasma of tuberculosis patients
Type: in vivo, human
Details: human, plasma, INH + 10 mg KRM; Hour 12; read-out: Rifalazil Concentration in Plasma, Max
MEASURED PARAMETER: concentration at 12 h (ng/mL)
Record the value in ng/mL, omitting the unit from your answer.

Query block: Using the record for "CO[C@H]1/C=C/O[C@@]2(C)Oc3c(C)c(O)c4c(=O)c(c5oc6cc(N7CCN(CC(C)C)CC7)cc(O)c6nc-5c4c3C2=O)NC(=O)/C(C)=C\C=C\[C@H](C)[C@H](O)[C@@H](C)[C@@H](O)[C@@H](C)[C@H](OC(C)=O)[C@@H]1C" , report its concentration at 12 h.
Result block: 11.9
